Reported cytotoxicity at 10 µM values are given for each entry in this list.
Experimental Details: Toxicity liver stage against HepG2, at 10uM
Format: cell-based
Parameters: test concentration 10 uM, cell line HepG2-A16-CD81EGFP
Condition Notes: human, HepG2-A16-CD81EGFP cells; read-out: INHIBITION

| Compound | Output Unit | cytotoxicity at 10 µM |
| --- | --- | --- |
| CC(NC(=O)CCS(=O)(=O)C1CCCC1)c1nc(-c2ccccc2)c[nH]1 (stereo not drawn) | % | 1.05 |
| N#Cc1cc(Cl)ccc1N1CCOC(C(N)=O)C1 (stereo not drawn) | % | 11.7 |
| Cc1cc(C)c(CNC(=O)NCC(O)c2ccccc2)c(=O)[nH]1 (stereo not drawn) | % | -10 |
| Cc1ccc(CN[C@@H]2COC[C@H]2c2ccc(F)cc2)cc1C | % | 9.07 |
| Cc1cc(CN2CCN(Cc3ccc(C#N)cc3OC(F)F)CC2)no1 | % | 1.81 |
| Cc1ccc(-c2nc(CN3C[C@@H](C)NC[C@@H]3C)c(C)o2)s1 | % | -11.7 |
| CC(=O)N1CCOC(c2nc(N(C)C)ncc2-c2cccc(F)c2)C1 (stereo not drawn) | % | -27.5 |
| CCc1ncc2c(n1)CN(Cc1nc(-c3cccs3)no1)CC2 | % | -7.82 |
| CS(=O)(=O)N1CCO[C@@H]2CN(Cc3ccc(F)cc3)C[C@@H]2C1 | % | 4.74 |
| CCC(=O)N1CCN(Cc2cc(-c3ccncc3)nn2C)CC1 | % | 4.24 |
| O=C(c1n[nH]c(=O)c2ccccc12)N1CCCC1Cn1cccn1 (stereo not drawn) | % | -0.743 |
| CC(=O)N[C@@H]1C[C@H](Cc2ccccc2)O[C@H](c2ccc(C(=O)O)cc2)C1 | % | 2.76 |
| COc1ccc(Oc2ccc(C(F)(F)F)cn2)cc1CN1CCCC1 | % | -5.62 |
| CC(=O)c1cccc(OCCCC(=O)N(C)Cc2cscn2)c1 | % | 0.175 |
| CC(c1cc(O)nc(NC2CCCC2)n1)n1ncc2ccccc2c1=O (stereo not drawn) | % | 22.9 |
| Cc1cc(-n2nnc(C(=O)O)c2-c2ccncc2)ccc1F | % | 6.31 |
| CC(C)N(C)CCNC(=O)NCc1ccccc1-n1cccn1 | % | -7.57 |
| O=C(CN1CCOC(Cn2cccn2)C1)NCCc1cccs1 (stereo not drawn) | % | -11.3 |
| CN(C)c1ccc(CC(=O)N2C[C@H](C3CC3)[C@@H](N)C2)cc1 | % | -3.97 |
| CC(=O)Nc1nc(C(=O)N2CCCCC2Cn2cc(C)cn2)cs1 (stereo not drawn) | % | -17.1 |
| CC(C)CS(=O)(=O)Nc1ccc2c(c1)OCC(C)(C)C(=O)N2C | % | -0.123 |
| CNC(=O)CCC(=O)N1CCOC(c2ccc3cc(OC)ccc3c2)C1 (stereo not drawn) | % | 3.85 |
| O=C(c1cccc(CO)n1)N1CCCC1c1nc2cc(F)ccc2[nH]1 (stereo not drawn) | % | -1.26 |

====

Reported cytotoxicity at 10 µM values are given for each entry in this list.
Experimental Details: Toxicity liver stage against HepG2, at 10uM
Assay type: cell-based
Parameters: test concentration 10 uM, cell line HepG2-A16-CD81EGFP
Condition Notes: human, HepG2-A16-CD81EGFP cells; read-out: INHIBITION

| Molecule | cytotoxicity at 10 µM, % |
| --- | --- |
| Fc1ccc(C(NCc2nnc(C3CC3)o2)C2CCC2)cc1 (configuration not stated) | -48.1 |
| CC(=O)c1cccc(NCC(=O)NC(N)=O)c1 | 2.54 |
| O=C(CCC1CCCCO1)NCc1cnn(-c2ccc(F)cc2F)c1 (configuration not stated) | -11.4 |
| Cc1nc(C)n(CC2CN(CCc3ccncc3)CCO2)n1 (configuration not stated) | -14.7 |
| CCC(=O)c1ccc(OCC(=O)NCC2CC(CC)=NO2)cc1 (configuration not stated) | -41.7 |
| c1ccc(-c2nc(CN3CCn4c(nnc4C4CC4)C3)co2)cc1 | -2.18 |
| Cn1cc(CN2CCC3(CCCN(C(=O)c4cnccn4)C3)C2)cn1 (configuration not stated) | -131 |
| c1ccc(CCCN2CCOC(Cn3cccn3)C2)cc1 (configuration not stated) | 9.11 |
| CN1N=C(C(=O)NCc2ccc3c(c2)CCCN3C)CCC1=O | -0.602 |
| Cc1cc(C(=O)N2CCC3(C2)CN(c2ccsc2)C(=O)CN3C)[nH]n1 (configuration not stated) | -75.2 |
| CN(c1ccccc1)S(=O)(=O)c1cc2c(c(C(=O)O)c1)OCCO2 | -9.47 |
| CCN(c1ccc(C(=O)NCCCN2CCCCC2)cc1)S(=O)(=O)CC | 7.91 |
| CS(=O)(=O)N1CCc2ccc(=O)n(CC3CCOCC3)c2CC1 | 6.4 |
| Cc1nc(NC(=O)CNC(=O)c2c(F)cccc2Cl)n[nH]1 | -10.2 |
| Cc1nc(C)n(CC2CCCN(Cc3cc(C#N)ccc3F)C2)n1 (configuration not stated) | -18.3 |
| Cc1ccc(C(=O)N2CCC3(CC2)C(=O)NCCN3C)cc1O | -0.081 |
| Cc1nc(O)cc(C2CCCN(C(=O)c3cccc(N(C)C)c3)C2)n1 (configuration not stated) | -6.47 |
| CCN(C)CC1CCN(C(=O)Nc2ccc(C)cc2)C1 (configuration not stated) | 2.89 |
| Cn1cnc2c1CCN(c1ccnc(-c3ccccc3)n1)C2 | 7.51 |
| Cc1noc(CCCC(=O)N2CCCC2c2ccsc2)n1 (configuration not stated) | -3.02 |
| CCc1cnc(NCCCN2CCC(O)CC2)nc1 | 3.44 |
| Cc1cc(C)n(C2CCCN(C(=O)Cc3cn4ccsc4n3)C2)n1 (configuration not stated) | -6.07 |
| O=S(=O)(CCN1CCCC1Cn1cccn1)c1ccccc1 (configuration not stated) | -11.9 |
| CCN(CC1CCOC1)C(=O)c1ccc(N2CCOCC2)c(F)c1 (configuration not stated) | -2.45 |
| CC(=O)N(Cc1ncc(C)o1)C1CCN(Cc2ccccc2C#N)C1 (configuration not stated) | -15.5 |
| CC(NC(=O)Nc1ccccc1CN1CCOCC1)c1nccs1 (configuration not stated) | 2.1 |
| CCOCc1ccc(CNC(=O)N2CCC(C(N)=O)C2)cc1 (configuration not stated) | -11.4 |
| CCN(Cc1ccncc1)CC1(O)CCN(C(=O)c2ccccc2C)C1 (configuration not stated) | -22 |
| CO[C@H]1CCN(Cc2cccc(C)n2)[C@@H]2CN(Cc3cccnc3)C[C@H]12 | -11.3 |
| CC(C)CCN1C(=O)c2ccc(C(=O)NCCc3c[nH]cn3)cc2C1=O | -12.5 |
| CC(C)N(C)Cc1cncc2c1CCN(C(=O)c1ccc[nH]1)C2 | 3.73 |
| CCOCc1cccc(S(=O)(=O)Nc2ncc(C)s2)c1 | 6.38 |
| CN1CCN(Cc2cccnc2)C2(CCN(Cc3ccccn3)C2)C1=O (configuration not stated) | -3.66 |
| O=C(c1ncccn1)N1C[C@@H]2CN(Cc3cccnc3)CCO[C@@H]2C1 | 7.67 |
| O=C1[C@@H]2CCN(Cc3ccc(F)cc3)C[C@@H]2OCCN1c1cccnc1 | 8.82 |
| COCCn1ccc2c(NC(=O)c3n[nH]c4c3CCC4)cccc21 | -1.6 |
| CC(C)c1nc(CNc2nccc(CCC(F)(F)F)n2)cs1 | 1.24 |
| CCN(CCn1c(=O)oc2ccccc21)CC1CCOCC1 | -8.73 |
| CCOCC(O)CN1CCN(C(=O)Cc2ccc(C)nc2)CC1 (configuration not stated) | -4.97 |
| CCn1nc2ccc(S(=O)(=O)N3CCSCC3)cn2c1=O | 2.4 |
| Cc1noc(-c2ccnc(N3CCC(CN4CCOCC4)CC3)c2)n1 | -2.11 |
| O=C(COCC(F)(F)C(F)F)N1CCC2(CCCN(CCO)C2=O)C1 (configuration not stated) | 8.77 |
| c1ccc(-n2ccc(CNCC3CCCN3c3cccnn3)n2)cc1 (configuration not stated) | -10.2 |
| Cc1[nH]ncc1CCCNC(=O)Nc1ccc(S(C)(=O)=O)nc1 | -3.71 |
| CN(C1CCCCC1)S(=O)(=O)NC1CCCN(c2ncccn2)C1 (configuration not stated) | 3.7 |
| CCNCc1ccc(OCc2ccc3c(c2)OCCO3)cc1 | 2.44 |
| CNC(=O)CN1CCCC12CCN(C(=O)c1ccccc1F)CC2 | 1.58 |
